Target: T1, human DLL4, full length, on cells (human, UniProt Q9NR61 27-685)
T1 construct: also called huDLL4 cells; human DLL4-293G
T1 sequence (Q9NR61 27-685 limits assumed): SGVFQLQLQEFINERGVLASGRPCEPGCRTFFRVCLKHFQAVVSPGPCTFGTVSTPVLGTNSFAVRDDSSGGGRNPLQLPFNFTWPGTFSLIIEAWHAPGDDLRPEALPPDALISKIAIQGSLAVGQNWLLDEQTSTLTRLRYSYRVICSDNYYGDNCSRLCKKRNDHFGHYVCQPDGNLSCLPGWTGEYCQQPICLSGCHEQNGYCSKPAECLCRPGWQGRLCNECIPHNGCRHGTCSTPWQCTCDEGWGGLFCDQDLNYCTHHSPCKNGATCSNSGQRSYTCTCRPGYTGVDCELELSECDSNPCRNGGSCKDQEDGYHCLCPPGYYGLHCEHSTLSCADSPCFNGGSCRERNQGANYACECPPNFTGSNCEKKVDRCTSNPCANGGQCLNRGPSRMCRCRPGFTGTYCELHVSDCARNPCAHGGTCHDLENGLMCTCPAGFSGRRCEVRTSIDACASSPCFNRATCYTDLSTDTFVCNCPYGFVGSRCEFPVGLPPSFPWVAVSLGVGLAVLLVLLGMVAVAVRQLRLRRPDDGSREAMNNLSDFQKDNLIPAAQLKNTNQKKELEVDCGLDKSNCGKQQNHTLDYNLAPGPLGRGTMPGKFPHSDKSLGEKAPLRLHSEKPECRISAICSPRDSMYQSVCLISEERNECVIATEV
Assay: FACS, DLL4 cells
outcome_measure: EC50 (nM)
Answers are plain numbers, in nM.

Query string: Could you share which EC50 value was measured for h38H12.14 (antibody, V domains shown, humanized IgG; also called VH.2a/VL.1a 38H12) VH: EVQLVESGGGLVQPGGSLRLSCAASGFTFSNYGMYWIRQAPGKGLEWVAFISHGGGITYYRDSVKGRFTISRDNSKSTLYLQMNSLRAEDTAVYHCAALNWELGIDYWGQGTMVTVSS VL: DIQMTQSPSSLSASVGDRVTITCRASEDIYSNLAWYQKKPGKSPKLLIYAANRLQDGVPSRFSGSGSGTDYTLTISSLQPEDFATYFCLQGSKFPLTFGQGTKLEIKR ?
Result string: 1.04
